Please go through the items and note down their nuclei count.
Experiment: reduction of polyQ htt aggregates in cells – imaging, exon1htt(103Q)mCFP cells, high-content imaging, primary screen (AID 483);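 also: compound exposure lasted 3 days before fixation; percent of the per-plate median nuclei count of sample wells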
Conditions: exon1htt(103Q)mCFP cell line, aggregate imaging, at 2 µM; measured here: cell count, toxicity

Here is how some molecules turned out for nuclei count.
[
  {
    "molecule": "CN(CC(=O)NCCC1=CCCCC1)S(=O)(=O)c1ccc2c(c1)CCC(=O)N2",
    "quantity measured": "nuclei count",
    "measured result": "111%"
  },
  {
    "molecule": "CCCc1nnc2n1N=C(c1ccc(OC)c(OC)c1)CS2",
    "quantity measured": "nuclei count",
    "measured result": "83.3%"
  },
  {
    "molecule": "CCC1SC2=NC(C)=C(C(=O)OC)C(c3ccc(C)cc3)N2C1=O (configuration not stated)",
    "quantity measured": "nuclei count",
    "measured result": "111%"
  },
  {
    "molecule": "CCC(C(=O)N1CCc2cc(OC)c(OC)cc2C1)c1ccccc1 (configuration not stated)",
    "quantity measured": "nuclei count",
    "measured result": "88.6%"
  },
  {
    "molecule": "COC(=O)CSC1=NS(=O)(=O)c2ccccc21",
    "quantity measured": "nuclei count",
    "measured result": "91.3%"
  },
  {
    "molecule": "CC(C)C1N=C2c3ccccc3N=C(SCc3cc(=O)n4ccccc4n3)N2C1=O (configuration not stated)",
    "quantity measured": "nuclei count",
    "measured result": "58.8%"
  }
]

Turning to the following molecule.
Given item CCN(CC(=O)NC1CCS(=O)(=O)C1)C(=O)C(c1ccccc1)c1ccccc1 (configuration not stated) , the value recorded as its nuclei count is 105%

----------
Could you please report measured fluorescence slope for the items listed next?
Target: Voltage-gated potassium channel subunit beta-2 (Rattus norvegicus) (UniProt P62483)
Sequence (P62483 whole entry, looked up): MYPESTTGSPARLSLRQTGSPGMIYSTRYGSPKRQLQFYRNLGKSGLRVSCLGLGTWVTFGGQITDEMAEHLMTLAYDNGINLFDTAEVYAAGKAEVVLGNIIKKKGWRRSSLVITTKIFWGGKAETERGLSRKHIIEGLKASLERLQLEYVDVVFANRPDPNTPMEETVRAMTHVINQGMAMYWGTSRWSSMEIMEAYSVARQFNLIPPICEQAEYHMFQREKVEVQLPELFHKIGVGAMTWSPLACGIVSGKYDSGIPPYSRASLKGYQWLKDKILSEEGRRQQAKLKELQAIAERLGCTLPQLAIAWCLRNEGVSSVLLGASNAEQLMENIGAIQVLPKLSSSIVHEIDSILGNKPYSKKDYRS
Experiment: inhibitors of rat Kvbeta2 reductase activity – biochemical, NADPH fluorescence, primary screen (AID 622);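 also: slope of raw intensity against log time taken from 70 to 1610 s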
Conditions: recombinant KvBeta, 4-cyanobenzaldehyde reduction, at 10 µM, stronger effect = higher value
Where a SMILES comes first, the peptide text is derived from it. The star is where a group is joined. Boc = CC(C)(C)OC(=O)*
Numbers only.

[
  {
    "compound": "Cn1c(SCC(N)=O)nnc1C1CCN(C(=O)NCc2ccccc2)CC1",
    "fluorescence slope": -0.385
  },
  {
    "compound": "NC(=O)COC(=O)CNC(=O)c1ccc(Cl)cc1",
    "fluorescence slope": -0.521
  },
  {
    "compound": "COc1ccc(CN(Cc2nc3ccccc3c(=O)[nH]2)C(=O)NC2CCCCC2)cc1",
    "fluorescence slope": -0.359
  }
]

Next, consider the following compound.
So, CC(NC(=O)OC(C)(C)C)C(=O)N1CCCC1C(=O)NC(Cc1ccccc1)C(N)=O (stereo not drawn) (Boc-Ala-Pro-Phe-NH2; configuration not given here) ? Its fluorescence slope was -0.498

----------
Experiment: endothelial E-selectin expression blockers – imaging, HUVEC, immunofluorescence, MLSMR starter and 10KST1 sets, primary screen (AID 487);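 also: signal is fraction of cell area covered by stained E-selectin grains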
Details: HUVEC TNFalpha-induced E-selectin immunofluorescence imaging, at 2 µM; stronger effect = higher value
quantity measured: inhibition (%)
Answers are plain numbers, in %.

[
  {
    "molecule": "CC(C)(C)n1nnnc1CN1CCN(C2CCCC2)CC1",
    "units of measure": "%",
    "inhibition": -52.3
  },
  {
    "molecule": "O=C(NCC1CCCO1)C1CCN(S(=O)(=O)c2cccc3cccnc23)CC1 (centres undefined)",
    "units of measure": "%",
    "inhibition": -63.2
  },
  {
    "molecule": "COCCNC(=O)C(c1ccc(C)o1)N(Cc1ccc(OC)cc1)C(=O)Cn1nnc2ccccc21 (centres undefined)",
    "units of measure": "%",
    "inhibition": 25.3
  },
  {
    "molecule": "Cc1nc(NC2=NCN(CC3CCCO3)CN2)nc2ccccc12 (centres undefined)",
    "units of measure": "%",
    "inhibition": 29
  },
  {
    "molecule": "CSCCC(NS(=O)(=O)c1ccc2c(c1)oc(=O)n2C)C(=O)NC1CCCCC1 (centres undefined)",
    "units of measure": "%",
    "inhibition": -35.6
  },
  {
    "molecule": "CC(C)Cn1c(N)c(C(=O)NCc2cccs2)c2nc3ccccc3nc21",
    "units of measure": "%",
    "inhibition": -1.8
  },
  {
    "molecule": "Cc1ccccc1C(=O)Nc1c(C(=O)N2CCCC2)cnn1-c1ccccc1",
    "units of measure": "%",
    "inhibition": -34.4
  },
  {
    "molecule": "COc1cc2c(cc1NCc1ccccn1)oc1ccccc12",
    "units of measure": "%",
    "inhibition": -27.9
  }
]

# batch size: 3; output inhibition per entry
1. CCOC(=O)N1CCN(C(=O)COc2ccc(Br)cc2Cl)CC1
2. Cc1noc(C)c1CSc1nc2ccccc2s1
3. Cn1c(=N)n(CC(=O)O)c2ccccc21

1: -27.2; 2: -4.7; 3: -51.5

// each listed molecule needs a value for inhibition
1. CCOc1cc(C(=O)N(C)Cc2cc3cc(OC)ccc3[nH]c2=O)cc(OCC)c1OCC
2. Cc1cc(=O)[nH]c(=S)n1-c1ccccc1
3. CCOc1ccc(NC(=O)CSc2nccn2C)cc1
4. Cn1c(SCc2nnc3n2CCCCC3)nc2ccccc21
5. O=C(CN1C(=O)C2C3C=CC(C3)C2C1=O)NCc1ccc2c(c1)OCO2 (centres undefined)
6. O=S(c1ccsc1)c1ccsc1

1. -174
2. 23.3
3. -28.1
4. -94.2
5. -109
6. 13

Below are some molecules; for each one, tell me its inhibition.
1. Cc1cccc(NC(=O)C2CCCN2C(=O)OCC(C)C)c1C (centres undefined)
2. Cc1ccc(N=C2NC(=O)CS2)c(C)c1
3. CSCCC(N=CC1=C(O)CC(C)(C)CC1=O)C(=O)O (centres undefined)
4. COCCCNC(=O)C1CCN(C(=O)Nc2ccc(Cl)cc2)CC1
5. Cn1c(=O)[nH]c(=O)c2c1nc(NC1CCCCC1)n2CC(=O)NC1CCCCC1
6. CCN1CCCC1CNC(=O)CS(=O)(=O)Cc1nc(-c2ccccc2C)oc1C (centres undefined)
7. CCOC(=O)N1CCN(c2cc(=O)n(-c3cccc(Br)c3)c(=O)[nH]2)CC1

1: -120; 2: 59.4; 3: -0.2; 4: 33.6; 5: 10.2; 6: -87.9; 7: -13.2

Report inhibition for every entry below.
1. CN(Cc1ccccc1)S(=O)(=O)c1ccc(S(=O)(=O)N2CCN(CCC#N)CC2)cc1
2. Cn1c2ccccc2c2ncn(CCCN3CCOCC3)c(=O)c21
3. O=C(CSc1nnc(COc2ccc(Cl)cc2)o1)OC1CCCCC1
4. CCCCn1c(=O)[nH]c(=O)c2c1nc(-c1ccncc1)n2CCOC

-50.4
5.6
9.7
-19.9

For every listed record, write down its inhibition.
1. CCc1ccc(N2CC34C=CC(O3)C(C(=O)OC)C4C2=O)cc1 (centres undefined)
2. CC(C)(C)C(=O)CCN1C(=O)C2(OCCO2)c2ccccc21
3. COc1ccccc1OCC(=O)N1CCNC1=O
4. Cn1c(SCc2nc3ccccc3c(=O)[nH]2)nnc1-c1ccco1
5. COc1cc2c(cc1OC)CN(C(=O)CSc1nc3[nH]ncc3c(=O)n1-c1ccccc1)CC2
6. O=C(Oc1ccccc1)c1cccc(COC(=O)c2cnccn2)c1

1. -7.9
2. -140
3. -78.6
4. -141
5. -7.3
6. 20.7
